The reported measurements were obtained from patent US20110286916A1.

Molecular target: T1, Notch1 extracellular fragment (amino acid 19-526) Fc fusion protein, R&D Systems 3647-TK (human, UniProt P46531 19-526)
T1 construct: bought protein; also called Notch1/Fc; Notch1-ECD Fc fusion protein; not shown: Fc of the bought fusion protein
T1 sequence (P46531 19-526 limits assumed): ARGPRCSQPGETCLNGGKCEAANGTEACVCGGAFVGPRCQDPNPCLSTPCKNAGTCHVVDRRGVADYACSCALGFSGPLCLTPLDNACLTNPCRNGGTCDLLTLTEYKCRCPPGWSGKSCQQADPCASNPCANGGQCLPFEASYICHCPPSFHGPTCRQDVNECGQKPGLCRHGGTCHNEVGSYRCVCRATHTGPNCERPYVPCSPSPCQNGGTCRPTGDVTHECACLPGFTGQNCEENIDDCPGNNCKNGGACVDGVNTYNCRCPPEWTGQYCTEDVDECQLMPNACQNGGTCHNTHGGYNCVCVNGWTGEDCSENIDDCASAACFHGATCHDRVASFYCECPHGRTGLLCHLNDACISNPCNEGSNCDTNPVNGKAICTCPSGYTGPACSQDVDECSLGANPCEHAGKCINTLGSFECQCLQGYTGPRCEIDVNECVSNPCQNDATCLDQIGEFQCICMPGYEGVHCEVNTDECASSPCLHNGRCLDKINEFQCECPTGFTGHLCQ
Experiment: BIAcore SPR, Notch1/Fc on CM5, Mab analyte, 1:1 binding
Description: All experiments were performed at 25° C. at a flow rate of 40 μl/min. […] FC1 was used as the reference cell. Specific signals were the results of differences of signals obtained on FC2 versus FC1. […] The dissociation phase of the analyte was monitored over a period of time ranging 10-30 minutes. Running buffer was also injected under the same conditions as a reference. Equilibrium dissociation constant (KD) was calculated by the ratio between dissociation (koff) and association (kon) rate constants.
Readout label: koff (s⁻¹)

| Binder | Readout label | Unit of measure | Recorded number |
| --- | --- | --- | --- |
| WC-97 (antibody, human IgG1, lambda, V domains shown, also called N1wc97; hN1wc-97) VH: EVQLVQSGAEVKKPGASVKVSCKASGYNFTGYYMHWVRQAPGQGLEWMGWINPNSGGTNYAQKFQGRVAMTRDTSISTAYMELSRLRSDDSAVYYCATDSFDYWGRGTTVTVSS VL: QSVLTQPPSVSGAPGQRVTISCTGTSSNIGAGYDVQWYQQLPGTAPKVLMYGNSNRPSGVPDRFSGSKSGTSASLAITGLQAEDEADYYCQSYDSSLSGSLFGTGTKVTVLQ | koff | s⁻¹ | 0.000438 |
